Experiment: soluble on expression in E. coli; label from the status in PepcDB or PDB records
Readout label: soluble on expression in E. coli

Study these solved cases before continuing.
SLKIKNILLSGGSGKRLWPLSRSLYPKQFLKLFDHKSLFELSFKRNASLVDETLIVCNEKHYFLALEEIKNEIKNKSVGFLLESLSKNTANAIALSALMSDKEDLLIVTPSDHLIKDLQAYENAIKKAIDLAQKGFLVTFGVSIDKPNTEFGYIESPNGLDVKRFIEKPSLDKAIEFQKSGGFYFNSGMFVFQAGVFLDELKKHAPTILKGCERAFESLENAYFFEKKIARLSEKSMQDLEDMSIDIALMQQSHKIKMVELNAKWSDLGNFNALFEEAANEPKENVSLNQTPVFAKESENNLVFSHKVSALLGVENLAVIDTKDALLIAHKDKAKDLKALVNEVETNN; soluble
SVRVMQLTLGNSTITTQEAANSVVAYGRWPEYIKDSEANPVDQPTEPDVAACRFYTLDTVTWRKESRGWWWKLPDALKDMGLFGQNMFYHYLGRAGYTVHVQCNASKFHQGALGVFAVPEMCLAGDSTTHMFTKYENANPGEKGGEFKGSFTLDTNATNPARNFCPVDYLFGSGVLAGNAFVYPHQIINLRTNNCATLVLPYVNSLSIDSMTKHNNWGIAILPLAPLDFATESSTEIPITLTIAPMCCEFNGLRNITVPRTQ; soluble
EKAEDCWELQISPELLAHGRQKILDLLNEGSARDLRSLQRIGPKKAQLIVGWRELHGPFSQVEDLERVEGITGKQMESFLKANILGLAAGQ; soluble
MGSDKIHHHHHHMEFMKQLGSCCQYCAYPLSDDTYLVCGQCVRKRPSFDSAYIAYRFEEPLRSLIHQFKYHNGLYLASFLKQLLLNALPKNALKPDCLIPVPMHPKRLKRRGFNQAGVLTRLLARQLNIPYDLYYCQKIINTASQANLDGEQRRKNLRHAFYVSAVTYEHVMIVDDLLTTGSTANEMAHTLKNAGVKRVDICCCARAVTKN; not soluble
MSLKYQLRFGGEGGQGVITAGEILAEAAIKEGRQAFKASTYTSQVRGGPTKVDIIIDDKEILFPYAVEGEVDFMLSTADKGYKGFRGGVKEGGIIVVEPNLVHPESEDYKKWQIFEIPIITIAKDEVGNVATQSVVALAIAAYMSKCIDLDVLKETMLHMVPAKTRDANAKAFDLGVKYATQAKPHEGHHHHHH; soluble

input: Look up soluble on expression in E. coli: `MFKGIVQGAGIIKKISKNDDTQRHGITFPKDILESVEKGTVMLVNGCSLTVVRISGDVVYFDIDQAINTTTFRELEVGNKVNLEVRPEFGSLLGKGALTGNIKGVATVDNITEEEDRLKVYIKIPKDLIENILSEDHIGINGVSHSIEEISDDIIFINYPKNLSITTNLGTLEKGSDVNVETLNVSNEWD`
output: soluble

input: Look up soluble on expression in E. coli: `SGSRDHLFKVLVVGDAAVGKTSLVQRYSQDSFSKHYKSTVGVDFALKVLQWSDYEIVRLQLWDIAGQERFTSMTRLYYRDASACVIMFDVTNATTFSNSQRWKQDLDSKLTLPNGEPVPCLLLANKCDLSPWAVSRDQIDRFSKENGFTGWTETSVKENKNINEAMRVLIEKMMRNSTEDIMSLSTQGDYINLQTKSSSWSCC`
output: soluble

input: Look up soluble on expression in E. coli: `MGSDKIHHHHHHMNVTLRQLQAFIAVAELGRFHLAADHLGLTQSAISILIKDLEVALKHRLFDRHTRMVSLTTAGAEFLPQARKIMSDLEIAVANVHELASLQRGRVTIAAAIVLAATLLPPVIARFVKRYPDISVQVRDMPEEEIRSALKRNEADLGIGTVSADDPEIQASVLMRDQLTLICRSDHRFAKARQVSWASLAGEGVIGLAKDNPLRGLVDRALIASGVEVKTRYEVRFSTTAISMVAEGLGIAILPENSRQLTTNVDVRIVELVDPVISRNISILQYRQPMLSPAAAKMKEFLMGASRKLS`
output: not soluble

input: Look up soluble on expression in E. coli: `MAHHHHHHMSSCKDSLSLMAMWGSIARFDPKHERSFEGPEKRLEVIMRVVDGTHVSGLLAHDDDVWQKVIDAICAHIVSREFNEYIRSYVLSESSLFVMKDRVILITCGTITLLNCVPLICEAVSTVCGEVEWVSFMHKNYSFPWEQKGPHLSMAEEFKTLRSHFPSGQPFIFGPIDSDHYFLYFHSDVVQPSCSDDAQLSMTMYGLDRNQTKHWYSDKMLPTGPETAVIREATGLSEVVDDSWILHDLQYEPCGYSINAIRGSEYQTIHITPEEHCSFASYETNTCALNYSKCICGVLRVFDPERFSVIVFIDPDSAVGKSYHSGGTIGVEPEYYPNYEAHHRTVNEYTPGHWVLKVNYVKRAVGTVGTSAASGAKE`
output: not soluble

input: Look up soluble on expression in E. coli: `MAHHHHHHMADRGDARVVHVFVDDLSAVLAEDVHEWLRIIGDIDELKMRYDASRQRSFYWVRFHQSSAARLAVDHLDGERLKNHAIEIHSNVFKKQTAAVATLEGAAGGVQEEKTKLEMNPNLPKNHLMPRDLQMDELLVRAIPEMLETSEQAAEGGELLQRLLELQESYCRAQESLERTTEGIRETDGELTALLRGETTAATDVSGPSSEGFVQGNTPLASARIRNAVPVPLSTCDPAGLLSKLTRHVGPVADYAFSFASNGGSFATVVELFHPDDADFALALLTGRRMVSKSTEKHADAEDALAALVGFGWEAEASVAPLTPPSVPQASFAAHNRVATILRSCRSVA`
output: not soluble

input: Look up soluble on expression in E. coli: `MGSDKIHHHHHHMKLSRLKRKHKRVISVGKIAEQFWCEMKVELKLLYDIKPSNALVRKGKRIHDEISGKASLPRPKNFIDWLGGQIYFTNLSIESFLKSGLGREVFLVTKVDGDGWRWYLSGSIDEIRKKGGRTQVVERKTRLREEVPENESHKVQGLLYHLMLDEARRQKVSRNVKRAYGVVERAAISKEFSQAVGMTERNVKAMLRTLDSKLPMIPELDEEVVVIYESQKTGERIGEVRFKAQREEIERILQFSREYWAGEREALKTRENWKCRFCEVRKYCL`
output: not soluble
